# experiment.notes: Phase 3 randomized crossover trial: decitabine total exposure over 5 days (AUC) and plasma pharmacokinetics
# Assay type: in vivo, human
# conditions: human, plasma, intravenous, 20 mg/m^2/d, Sensitivity, paired, includes data excluded from primary endpoint; read-out: 5-Day Decitabine AUC0-24 LSM
measured.endpoint: AUC(0-t) (ng·h/mL)
Numbers only, in ng·h/mL.

query: Any idea what its AUC(0-t) is? The compound is Nc1ncn([C@H]2C[C@H](O)[C@@H](CO)O2)c(=O)n1
result: 870
